Below is a list of entries, each paired with its recorded MIC value.
system: Staphylococcus epidermidis; assay: Antibacterial activity against methicillin-resistant Staphylococcus epidermidis incubated for 16 hrs by agar dilution method; assay type: functional
Supply the numeric figure in µg/mL, leaving out any unit text.

Example entries and their recorded answers appear below.
## Input Param item = CC(=O)NC[C@@H]1OC(=O)N2c3ccc(-c4ccc(N5CCOC5=O)nc4)cc3SC[C@@H]12 ; retrieve measured MIC.
## Output 2

## Input GET /values?readout=MIC&item= CC(=S)NC[C@@H]1OC(=O)N2c3ccc(-c4ccc(C#N)nc4)cc3SC[C@@H]12
## Output 4

Let us move to another entry and its MIC.
## Input Could you tell me which MIC is on file for CC(=O)NC[C@@H]1OC(=O)N2c3ccc(-c4ccc(C#N)nc4)cc3SC[C@@H]12 ?
## Output 4
